- study system: T1, human EpCAM (epithelial cell adhesion/activating molecule) (human, UniProt P16422 24-314)
- T1 sequence: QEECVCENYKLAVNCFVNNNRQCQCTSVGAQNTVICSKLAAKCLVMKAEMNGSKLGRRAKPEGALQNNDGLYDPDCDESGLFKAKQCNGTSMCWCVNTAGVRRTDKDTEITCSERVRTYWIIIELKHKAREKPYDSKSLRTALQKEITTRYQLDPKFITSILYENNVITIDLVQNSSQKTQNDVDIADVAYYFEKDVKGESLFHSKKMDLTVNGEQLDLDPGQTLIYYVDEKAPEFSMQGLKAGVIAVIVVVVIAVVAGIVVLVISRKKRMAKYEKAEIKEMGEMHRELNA
- experimental details: cell-based or functional assay
property: % Annexin V/PI-positive cells, NCI-H520, 10 µg/ml mAb
The reply should consist of the numeric value with the unit placed after it.

binder	observed
murine monoclonal antibody 12H8 (antibody, mouse IgG2a, V domains shown, Mouse IgG2a, kappa, from hybridoma; also called m342-12H8.3; m12H8) VH: QIQLVQSGPELKKPGETVKISCKTSGYTFTDYSMHWVNQAPGKGLKWMGWINTETGEPTYTDDFKGRFAFSLETSASTAYLQINNLKNEDTATYFCARTAVYWGQGTTLTVSS VL: DIQMTQSPSSLSASLGERVSLTCRASQEISGSLSWLQQKPDGTIKRLIYAASTLNSGVPKRFSGRRSGSDYSLTISSLESEDFVDYYCLQYSSYPWSFGGGTKLEIKR	34%

Look up % Annexin V/PI-positive cells, NCI-H520, 10 µg/ml mAb for this binder: murine monoclonal antibody 6D11 (antibody, mouse IgG1, V domains shown, Mouse IgG1, kappa, from hybridoma; also called m338-6D11.8) VH: EVQLVESGGDLVKPGGSLKLSCAASGFAFDSYGMSWIRQTPGTRLEWVATISSGGYYTYYEDNVKGRFIISRDNAKNTLDLQMSGLKSEDAATYYCARRGNYDVDYYAMDYWGQGTSVIVSS VL: DVVLTQIPLSLPVSLGDQASISCRSSQSLEHSNGNTYLHWYLQKPGQSPKLLIYKVSNRFSGVPDRFSGSGSGTDFTLKISRVEAEDLGVYFCSQSTHVPPWTFGGGTKLEFKR
49%

How about this binder: murine monoclonal antibody 4D2 (antibody, mouse IgG1, V domains shown, Mouse IgG1, kappa, from hybridoma; also called m338-4D2.20) VH: EVQLVESGGDLVKPGGSLKLSCAASGFAFDSYGMSWVRQTPGKRLEWVATISSGGYYTYYQDSVKGRFTTSRDNAKNTLDLQMSSLKSEDSAIYYCARRGNYDVDYYAMDYWGQGTSVTVSS VL: DVVMTQTPLSLPVSLGDQASISCRSSQSLVHSNGNTYLHWYLQKPGQSPKLLIYKVSNRFSGVPDRFSGSGSGTDFTLRISRVEAEDLGVYFCSQSTHVPPWTFGGGTKLEIKR
32%

What about this binder? murine monoclonal antibody 2D11 (antibody, mouse IgG1, V domains shown, Mouse IgG1, kappa, from hybridoma; also called m322-2D11.19) VH: QIQLVQSGPELKKPGETVKISCKASGYTFTNYGMNWVKQAPGKGLKWMGWINTNTGEATYVEEFKGRVVFSLETSASTAYLQINNLKNEDTATYFCARIGYVWYFDVWGAGTTVTVSS VL: DIVMSQSPSSLAVSAGEKVTMSCKSSQSLFSSRTRKNYLAWYQQKPGQSPKLLIYWASTRESGVPDRFTGSGSGTDFTLTINSVQAEDLAVYYCKHSNNLFTFGSGTKLEIKR
52%
